- System: HT-29 (human colon carcinoma cell line, overexpresses high amounts of CA IX)
- test_summary: MTT cytotoxicity assay, HT-29 under anoxia or normoxia
- Assay type: cell-based
- conditions_used: HT-29, activity promotion under anoxia
recorded_metric: HT-29 Value = IC50(normoxia)/IC50(anoxia)
One number for each entry.

compound	readout_number
CCOC(=O)c1cc2ccc(OCCn3cc(CO[C@H]4O[C@@H]5O[C@@]6(C)CC[C@H]7[C@H](C)CC[C@@H]([C@H]4C)[C@@]57OO6)nn3)cc2oc1=O [10e]	3.66
C[C@H]1[C@@H](OCCn2cc(COc3ccc4c(C(F)(F)F)cc(=O)oc4c3)nn2)O[C@@H]2O[C@@]3(C)CC[C@H]4[C@H](C)CC[C@@H]1[C@@]24OO3 [12b]	4.62
Cc1c(Cl)c(=O)oc2cc(OCCCn3cc(CO[C@H]4O[C@@H]5O[C@@]6(C)CC[C@H]7[C@H](C)CC[C@@H]([C@H]4C)[C@@]57OO6)nn3)ccc12 [11d]	2.90
CCOC(=O)c1cc2ccc(OCCCn3cc(CO[C@H]4O[C@@H]5O[C@@]6(C)CC[C@H]7[C@H](C)CC[C@@H]([C@H]4C)[C@@]57OO6)nn3)cc2oc1=O [11e]	4.25

Next, consider the following compound.
IN: Please give the measured HT-29 Value = IC50(normoxia)/IC50(anoxia) for this compound: Cc1c(C)c2ccc(OCCCn3cc(CO[C@H]4O[C@@H]5O[C@@]6(C)CC[C@H]7[C@H](C)CC[C@@H]([C@H]4C)[C@@]57OO6)nn3)cc2oc1=O [11c]
OUT: 0.83
